Assay: Cmax in BALB/C mouse kidney at 2.5 mg/kg, iv by LC-MS/MS analysis
Type: ADME, organism-based
readout name: Cmax

What value of measured Cmax is listed for "Oc1cccc(-c2nc(N3CCOCC3)c3oc4ncccc4c3n2)c1" ?
2020 nM

====

Test: Half life in BALB/C mouse liver at 2.5 mg/kg, iv by LC-MS/MS analysis
Format: ADME, organism-based
readout name: half-life (h)
Answers are plain numbers, in h.

What value of measured half-life is listed for "Oc1cccc(-c2nc(N3CCOCC3)c3oc4ncccc4c3n2)c1" ?
4.2

====

Assay: AUClast in BALB/C mouse kidney at 2.5 mg/kg, iv by LC-MS/MS analysis
Format: ADME, organism-based
readout name: AUC(0-t) (µM·h)
Answers are plain numbers, in µM·h.

What value of measured AUC(0-t) is listed for "Oc1cccc(-c2nc(N3CCOCC3)c3oc4ncccc4c3n2)c1" ?
0.453

====

Experiment: Drug metabolism in mouse microsomes incubated for 30 mins by LC-MS/MS analysis
Format: ADME, Microsome
Details: read-out: Drug metabolism
readout name: metabolised at 0.5 h

What value of measured metabolised at 0.5 h is listed for "Oc1cccc(-c2nc(N3CCOCC3)c3oc4ncccc4c3n2)c1" ?
> 70%

====

Assay: AUClast in BALB/C mouse plasma at 2.5 mg/kg, iv by LC-MS/MS analysis
Format: ADME, organism-based
readout name: AUC(0-t)
Please answer in the form of a number followed by its unit of measurement.

What value of measured AUC(0-t) is listed for "Oc1cccc(-c2nc(N3CCOCC3)c3oc4ncccc4c3n2)c1" ?
0.624 µM·h

====

Assay: Tmax in BALB/C mouse liver at 2.5 mg/kg, iv by LC-MS/MS analysis
Type: ADME, organism-based
readout name: Tmax (min)
Numbers only, in min.

What value of measured Tmax is listed for Oc1cccc(-c2nc(N3CCOCC3)c3oc4ncccc4c3n2)c1 [PI-103] ?
4.98

====

Experiment: AUClast in BALB/C mouse spleen at 2.5 mg/kg, iv by LC-MS/MS analysis
Type: ADME, organism-based
readout name: AUC(0-t)

What value of measured AUC(0-t) is listed for "Oc1cccc(-c2nc(N3CCOCC3)c3oc4ncccc4c3n2)c1" ?
0.406 µM·h

====

Assay: Drug metabolism in human microsomes incubated for 30 mins by LC-MS/MS analysis
Assay type: ADME, Microsome
Conditions: read-out: Drug metabolism
readout name: metabolised at 0.5 h

What value of measured metabolised at 0.5 h is listed for "Oc1cccc(-c2nc(N3CCOCC3)c3oc4ncccc4c3n2)c1" ?
> 70%

====

Assay: AUClast in BALB/C mouse liver at 2.5 mg/kg, iv by LC-MS/MS analysis
Assay type: ADME, organism-based
readout name: AUC(0-t) (µM·h)
Numbers only, in µM·h.

What value of measured AUC(0-t) is listed for "Oc1cccc(-c2nc(N3CCOCC3)c3oc4ncccc4c3n2)c1" ?
0.801

====

Assay: Half life in BALB/C mouse kidney at 2.5 mg/kg, iv by LC-MS/MS analysis
Assay type: ADME, organism-based
readout name: half-life

What value of measured half-life is listed for "Oc1cccc(-c2nc(N3CCOCC3)c3oc4ncccc4c3n2)c1" ?
54 min

====

Assay: Clearance in BALB/C mouse plasma at 2.5 mg/kg, iv by LC-MS/MS analysis
Assay type: ADME, organism-based
readout name: clearance (mL/min)
Numbers only, in mL/min.

What value of measured clearance is listed for "Oc1cccc(-c2nc(N3CCOCC3)c3oc4ncccc4c3n2)c1" ?
3.17

====

Test: Cmax in BALB/C mouse plasma at 2.5 mg/kg, iv by LC-MS/MS analysis
Type: ADME, organism-based
readout name: Cmax (µM)
Give bare numbers, in µM.

What value of measured Cmax is listed for "Oc1cccc(-c2nc(N3CCOCC3)c3oc4ncccc4c3n2)c1" ?
4.17

====

Experiment: Tmax in BALB/C mouse plasma at 2.5 mg/kg, iv by LC-MS/MS analysis
Format: ADME, organism-based
readout name: Tmax (h)
Give bare numbers, in h.

What value of measured Tmax is listed for Oc1cccc(-c2nc(N3CCOCC3)c3oc4ncccc4c3n2)c1 [PI-103] ?
0

From: ChEMBL document CHEMBL5661974
